target: Glucocorticoid receptor (Homo sapiens); type: functional; further: assay procedure not described here
Sequence (P04150 whole entry): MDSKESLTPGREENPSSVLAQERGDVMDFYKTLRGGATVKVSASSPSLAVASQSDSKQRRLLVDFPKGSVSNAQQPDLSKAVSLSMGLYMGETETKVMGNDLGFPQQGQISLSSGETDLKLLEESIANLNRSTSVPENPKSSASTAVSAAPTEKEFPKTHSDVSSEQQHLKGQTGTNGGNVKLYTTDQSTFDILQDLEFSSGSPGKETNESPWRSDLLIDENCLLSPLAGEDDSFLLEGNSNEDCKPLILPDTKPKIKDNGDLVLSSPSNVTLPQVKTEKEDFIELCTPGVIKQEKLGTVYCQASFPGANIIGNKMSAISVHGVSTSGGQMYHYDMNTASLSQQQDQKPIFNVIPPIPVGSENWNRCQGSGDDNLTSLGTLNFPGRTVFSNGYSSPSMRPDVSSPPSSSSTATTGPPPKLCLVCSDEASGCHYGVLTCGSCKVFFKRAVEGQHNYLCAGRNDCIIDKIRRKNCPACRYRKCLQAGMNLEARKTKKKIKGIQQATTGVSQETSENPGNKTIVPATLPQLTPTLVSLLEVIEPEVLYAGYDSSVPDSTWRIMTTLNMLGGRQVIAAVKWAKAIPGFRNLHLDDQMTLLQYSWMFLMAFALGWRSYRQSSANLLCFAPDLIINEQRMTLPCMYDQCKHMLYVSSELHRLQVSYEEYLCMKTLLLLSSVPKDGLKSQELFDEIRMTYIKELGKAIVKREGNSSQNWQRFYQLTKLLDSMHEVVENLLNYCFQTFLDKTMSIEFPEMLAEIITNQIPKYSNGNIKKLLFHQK
measurement kind: AC50

COc1cccc2c1C(=O)c1c(O)c3c(c(O)c1C2=O)C[C@@](O)(C(C)=O)C[C@@H]3O[C@H]1C[C@H](N)[C@H](O)[C@H](C)O1 [DAUNORUBICIN] | > 10 µM
CCCN(CCc1cccs1)[C@H]1CCc2c(O)cccc2C1 [ROTIGOTINE] | > 30 µM
C#Cc1cccc(Nc2ncnc3cc(OCCOC)c(OCCOC)cc23)c1 [ERLOTINIB] | > 30 µM

# input Please report the recorded AC50 for C=C(C)[C@@H]1CCC(C)=C[C@H]1c1c(O)cc(CCCCC)cc1O [CANNABIDIOL] .
# output > 30 µM

---

Items are presented alongside their recorded AC50.
biological target: Gamma-aminobutyric acid receptor subunit alpha-1 (Rattus norvegicus); assay type: functional; further: assay procedure not described here
Sequence (P62813 whole entry): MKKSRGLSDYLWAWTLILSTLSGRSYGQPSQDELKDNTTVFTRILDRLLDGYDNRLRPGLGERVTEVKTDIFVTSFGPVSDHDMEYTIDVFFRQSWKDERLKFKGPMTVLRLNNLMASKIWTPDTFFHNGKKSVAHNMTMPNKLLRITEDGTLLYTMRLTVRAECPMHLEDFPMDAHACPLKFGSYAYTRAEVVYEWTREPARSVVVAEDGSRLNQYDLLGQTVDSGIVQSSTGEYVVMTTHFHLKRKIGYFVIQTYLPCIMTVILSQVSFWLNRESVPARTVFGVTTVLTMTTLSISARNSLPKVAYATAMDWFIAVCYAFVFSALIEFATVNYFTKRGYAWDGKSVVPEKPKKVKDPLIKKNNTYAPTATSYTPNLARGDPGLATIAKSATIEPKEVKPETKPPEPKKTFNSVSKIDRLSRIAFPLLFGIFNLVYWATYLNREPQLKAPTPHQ

# input Find the measured AC50: item CC1(C)O[C@@H]2[C@@H](CO[C@@]3(COS(N)(=O)=O)OC(C)(C)O[C@@H]23)O1 [TOPIRAMATE] , target or system Gamma-aminobutyric acid receptor subunit alpha-1 (Rattus norvegicus). Further: assay procedure not described here.
# output > 10 µM

# input Thanks! And "CC(C)=CCOc1ccc(/C=C/C(=O)c2ccc(OCC=C(C)C)cc2OCC(=O)O)cc1" ?
# output > 30 µM

---

target: 5-hydroxytryptamine receptor 2B (Homo sapiens); type: functional, cell-based; further: assay procedure not described here
Sequence (P41595 whole entry): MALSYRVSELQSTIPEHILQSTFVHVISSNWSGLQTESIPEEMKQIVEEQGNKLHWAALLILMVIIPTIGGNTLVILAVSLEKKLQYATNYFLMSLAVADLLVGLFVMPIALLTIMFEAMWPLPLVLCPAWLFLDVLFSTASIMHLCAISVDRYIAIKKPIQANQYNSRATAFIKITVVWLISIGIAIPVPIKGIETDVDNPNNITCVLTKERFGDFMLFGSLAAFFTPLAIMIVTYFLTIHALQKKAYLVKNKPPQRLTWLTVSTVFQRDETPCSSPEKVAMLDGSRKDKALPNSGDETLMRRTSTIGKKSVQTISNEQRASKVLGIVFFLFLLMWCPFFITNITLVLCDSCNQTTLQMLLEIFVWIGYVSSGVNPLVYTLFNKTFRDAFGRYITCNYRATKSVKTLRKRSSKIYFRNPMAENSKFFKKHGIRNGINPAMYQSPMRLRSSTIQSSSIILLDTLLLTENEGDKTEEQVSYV
Items are presented alongside their recorded AC50.

Reference set (5 entries):
COCCCOc1ccnc(C[S+]([O-])c2nc3ccccc3[nH]2)c1C (centres undefined) | > 10 µM
CN1[C@@H]2CC[C@H]1C[C@@H](OC(=O)c1c[nH]c3ccccc13)C2 | > 30 µM
N=C(N)c1ccc2cc(OC(=O)c3ccc(N=C(N)N)cc3)ccc2c1 | > 30 µM
CC1(C)O[C@@H]2C[C@H]3[C@@H]4C[C@H](F)C5=CC(=O)C=C[C@]5(C)[C@H]4[C@@H](O)C[C@]3(C)[C@]2(C(=O)CO)O1 [FLUNISOLIDE] | > 30 µM
Nc1nc(F)nc2c1ncn2[C@@H]1O[C@H](COP(=O)(O)O)[C@@H](O)[C@@H]1O [FLUDARABINE PHOSPHATE] | > 30 µM

# input Please report the recorded AC50 for Cc1cccc(N(C)C(=S)Oc2ccc3ccccc3c2)c1 [TOLNAFTATE] .
# output > 10 µM

# input Thanks! And "Cc1ccc(=O)n(-c2ccccc2)c1" ?
# output > 30 µM

# input Thanks! And Cc1cc(CC(=O)O)n(C)c1C(=O)c1ccc(Cl)cc1 [ZOMEPIRAC] ?
# output > 30 µM

# input Thanks! And "CC(C)N(CCCCOCC(=O)NS(C)(=O)=O)c1cnc(-c2ccccc2)c(-c2ccccc2)n1" ?
# output > 30 µM

# input Thanks! And "C[C@H]1Oc2cc(cnc2N)-c2c(nn(C)c2C#N)CN(C)C(=O)c2ccc(F)cc21" ?
# output > 30 µM

# input Thanks! And N=C(N)NCCCCCCC(=O)NC(O)C(=O)NCCCCNCCCN (centres undefined) ?
# output > 30 µM

---

Items are presented alongside their recorded AC50.
target: Gastric inhibitory polypeptide receptor (Homo sapiens, UniProt P48546); further: assay procedure not described here
Sequence (P48546 whole entry): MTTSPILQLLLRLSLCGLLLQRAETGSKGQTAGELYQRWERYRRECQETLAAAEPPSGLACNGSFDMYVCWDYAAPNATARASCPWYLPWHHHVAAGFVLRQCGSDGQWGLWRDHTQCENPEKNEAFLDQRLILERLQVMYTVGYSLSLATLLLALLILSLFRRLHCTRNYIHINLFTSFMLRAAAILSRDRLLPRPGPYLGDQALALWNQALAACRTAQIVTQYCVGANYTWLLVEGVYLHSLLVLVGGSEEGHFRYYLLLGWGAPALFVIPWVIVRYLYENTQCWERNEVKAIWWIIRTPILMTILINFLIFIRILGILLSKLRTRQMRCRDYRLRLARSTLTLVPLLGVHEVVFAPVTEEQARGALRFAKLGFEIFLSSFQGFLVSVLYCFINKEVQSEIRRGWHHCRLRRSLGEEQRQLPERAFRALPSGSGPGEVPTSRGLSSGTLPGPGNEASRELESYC

Reference set (4 entries):
O=C(O)c1ccccc1Nc1cccc(C(F)(F)F)c1 | > 30 µM
N[C@H](Cc1cc(I)c(Oc2cc(I)c(O)c(I)c2)c(I)c1)C(=O)O | > 30 µM
O=C1Nc2ccc(Cl)cc2C(c2ccccc2)=NC1O (stereo not given) | > 30 µM
CC(C)C[C@H](CN)CC(=O)O | > 30 µM

# input Find the measured AC50: item "CC(=O)OCC(CCn1cnc2cnc(N)nc21)COC(C)=O" , target or system Gastric inhibitory polypeptide receptor (Homo sapiens, UniProt P48546). Further: assay procedure not described here.
# output > 30 µM

# input Thanks! And "CCCCNc1ccc(C(=O)OCCN(C)C)cc1" ?
# output > 30 µM

# input Thanks! And CN1C[C@H](C(=O)N[C@]2(C)O[C@@]3(O)[C@@H]4CCCN4C(=O)[C@H](Cc4ccccc4)N3C2=O)C[C@@H]2c3cccc4[nH]cc(c34)C[C@H]21 [DIHYDROERGOTAMINE] ?
# output > 30 µM

# input Thanks! And "CCCN(CCC)CCc1cccc2c1CC(=O)N2" ?
# output > 30 µM

# input Thanks! And "C[C@H]1C[C@H]2[C@@H]3CCC4=CC(=O)C=C[C@]4(C)[C@@]3(Cl)[C@@H](O)C[C@]2(C)[C@@]1(O)C(=O)CO" ?
# output > 30 µM

# input Thanks! And CC1(C)O[C@@H]2[C@@H](CO[C@@]3(COS(N)(=O)=O)OC(C)(C)O[C@@H]23)O1 [TOPIRAMATE] ?
# output > 30 µM

# input Thanks! And COCCCOc1ccnc(C[S+]([O-])c2nc3ccccc3[nH]2)c1C (stereo not given) ?
# output > 30 µM

Each recorded value in this set is attributed to ChEMBL document CHEMBL5291721.
